tested on: Saccharomyces cerevisiae; experiment: Toxicity against yeast assessed as reduction in cell viability; format: organism-based
// reported Activity per item

Examples with answers:
Give the reported value of Activity for this record: O=S(=O)(NCc1cc2ccccc2s1)c1cccc(F)c1
> 180.5 µM

Give the reported value of Activity for this record: O=S(=O)(NCc1csc2ccccc12)c1ccc(C(F)(F)F)cc1
> 180.4 µM

Give the reported value of Activity for this record: O=S(=O)(NCc1csc2ccccc12)c1ccccc1F
59.1 µM

Give the reported value of Activity for this record: O=S(=O)(NCc1cc2ccccc2s1)c1ccc(Br)cc1
> 176.2 µM

Give the reported value of Activity for this record: Cc1cc(CNS(=O)(=O)c2ccc(Cl)cc2)c(C)o1
123.43 µM

Give the reported value of Activity for this record: Cc1ccc(S(=O)(=O)NCc2csc3ccccc23)cc1
> 211.08 µM

Give the reported value of Activity for this record: O=[N+]([O-])c1ccc(S(=O)(=O)NCc2ccoc2)cc1
> 237.4 µM

Give the reported value of Activity for this record: N#Cc1ccc(S(=O)(=O)NCc2cc3ccccc3s2)cc1
> 204 µM

Give the reported value of Activity for this record: Cc1cc(CNS(=O)(=O)c2ccc(C#N)cc2)c(C)s1
> 218.7 µM

Give the reported value of Activity for this record: Cc1cc(CNS(=O)(=O)c2ccc(Br)cc2)c(C)s1
133.2 µM

Next:
Give the reported value of Activity for this record: Cc1cc(CNS(=O)(=O)c2ccc(C#N)cc2)c(C)o1
168.8 µM

Give the reported value of Activity for this record: CC(=O)c1ccc(S(=O)(=O)NCc2csc3ccccc23)cc1
> 194 µM
